target: SARS-CoV-2 3CL-protease (Severe acute respiratory syndrome coronavirus 2, UniProt P0DTD1)
measure name: IC50

Illustrative cases are given below, each with its answer.
{"columns": ["molecular string", "IC50"],
 "data": [
  ["[2H]C([2H])([2H])N(C(=O)c1cc(OC(F)F)c2ncccc2c1)[C@@H](CC(C)(C)C)C(=O)N1C[C@]2(C[C@H]1C#N)C(=O)Nc1ccccc12", "< 100 nM"],
  ["CC(C)C[C@@H](C(=O)N1C[C@]2(C[C@H]1C#N)C(=O)Nc1ccc(Br)cc12)N(C)C(=O)OCc1ccccc1", "< 100 nM"],
  ["N#C[C@@H]1C[C@@]2(CN1C(=O)[C@H](CC1CC1)NC(=O)OCc1ccc(F)cc1F)C(=O)Nc1ccc(Cl)cc12", "< 100 nM"],
  ["C=CC(=O)N(C)[C@@H](CC(C)(C)F)C(=O)N1C[C@]2(C[C@H]1C#N)C(=O)Nc1ccccc12", "100 to 1000 nM"],
  ["CN(C(=O)c1cn(C(C)(C)C)nn1)[C@@H](Cc1ccccc1)C(=O)N1C[C@]2(C[C@H]1C#N)C(=O)Nc1ccccc12", "< 100 nM"]
]}

Now look at this entry.
Name the reported IC50 value associated with the molecule `CC(C)C[C@@H](C(=O)N1C[C@]2(C[C@H]1C#N)C(=O)Nc1ccccc12)N(C)C(=O)c1cc2cccnc2cc1F` < 100 nM
